This collection of values is drawn from ChEMBL document CHEMBL2169878.

# study.target: Chloroquine resistance transporter (Plasmodium falciparum) (UniProt Q9N623)
# Sequence (whole entry): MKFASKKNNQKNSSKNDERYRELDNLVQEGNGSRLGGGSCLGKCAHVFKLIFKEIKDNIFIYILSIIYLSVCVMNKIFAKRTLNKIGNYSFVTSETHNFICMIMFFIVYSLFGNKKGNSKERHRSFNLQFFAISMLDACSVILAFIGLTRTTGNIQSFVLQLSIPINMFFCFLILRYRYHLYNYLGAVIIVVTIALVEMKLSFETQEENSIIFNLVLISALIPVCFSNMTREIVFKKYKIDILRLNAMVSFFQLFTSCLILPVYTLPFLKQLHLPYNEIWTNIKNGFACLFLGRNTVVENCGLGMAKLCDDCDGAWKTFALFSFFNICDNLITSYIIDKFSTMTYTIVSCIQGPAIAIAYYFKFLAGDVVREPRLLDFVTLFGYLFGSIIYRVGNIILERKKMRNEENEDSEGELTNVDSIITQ
# procedure.summary: Inhibition of chloroquine-resistant Plasmodium falciparum Dd2 CRT expressed in Xenopus laevis oocyte assessed as inhibition of [3H]chloroquine uptake at 100 uM measured from 1 to 2 hrs
Calls of active or inactive are those of the source. No cut-off for these calls is given here.
measure.name: inhibition

Worked examples follow.
>  <molecule>
Clc1cccc(C(Nc2ccnc3cc(Cl)ccc23)c2ccc(CN3CCNCC3)cc2)c1 (racemic)

>  <value>
Active

$$$$
>  <molecule>
CN1CCN(Cc2ccc(C(Nc3ccnc4cc(Cl)ccc34)c3ccc(Cl)cc3)cc2)CC1 (racemic)

>  <value>
Active

$$$$
>  <molecule>
COc1ccc(CCN(C)CCCC(C#N)(c2ccc(OC)c(OC)c2)C(C)C)cc1OC (stereo not given)

>  <value>
74%

$$$$
>  <molecule>
Clc1ccc(C(Nc2ccnc3cc(Cl)ccc23)c2ccc(CN3CCCC3)c(Cl)c2)cc1 (racemic)

>  <value>
70%

$$$$

Now examine the next entry.
Query string: What does the data say about its inhibition? Entry: Clc1ccc(C(c2ccccc2)(c2ccc(CN3CCCC3)cc2)n2ccnc2)cc1 (racemic)
Result string: Active

----------
# procedure.summary: Ratio of drug uptake in blood to plasma in CD1 albino mouse
# Type: ADME
# recorded.conditions: whole blood and plasma
measure.name: blood plasma ratio
One number for each entry.

Query string: What does the data say about its blood plasma ratio? Entry: Clc1ccc(C(Nc2ccnc3cc(Cl)ccc23)c2ccc(CN3CCNCC3)cc2)cc1 (racemic)
Result string: 1.9

----------
# System: Salmonella typhimurium
# procedure.summary: Mutagenicity against Salmonella typhimurium TA98 assessed as revertants at 2 uM incubated for 90 mins followed by drug washout measured after 2 days relative to positive control
# Type: toxicity, organism-based
# recorded.conditions: salmonella enterica subsp. enterica serovar typhimurium, 1.5 h
Assign labels as follows, please: Criterion met for Activity below 7%; Criterion not met for Activity equal to or exceeding 7%.

Consider the worked cases shown below.
>  <molecule>
Clc1ccc(C(Nc2ccnc3cc(Cl)ccc23)c2ccc(Cn3ccnc3)cc2)cc1 (racemic)

>  <class.label>
Criterion met

$$$$
>  <molecule>
Fc1cc(C(Nc2ccnc3cc(C(F)(F)F)ccc23)c2ccc(Cl)cc2)ccc1CN1CCCC1 (racemic)

>  <class.label>
Criterion met

$$$$
>  <molecule>
Clc1cccc(C(Nc2ccnc3cc(Cl)ccc23)c2ccc(CN3CCCC3)cc2)c1 (racemic)

>  <class.label>
Criterion met

$$$$

Now look at this one.
Query string: Please check: Activity for Clc1ccc(C(Nc2ccnc3cc(Cl)ccc23)c2ccc(CN3CCCC3)c(Cl)c2)cc1 (racemic) , strictly under 7% or not?
Result string: Criterion not met
